Value source: ChEMBL document CHEMBL3232984

- method: Safety index, ratio of IC50 for human HepG2 cells to IC50 for procyclic stage of Trypanosoma brucei 427
- Assay type: toxicity, cell-based
- stated.conditions: HepG2 cells versus procyclic stage of Trypanosoma brucei 427, read-out: Ratio IC50
// reported selectivity ratio per item
# respond with the number and nothing more

Need selectivity ratio, item `Cl.Cl.c1ccc(CNCCNCc2ccccc2)cc1`
20.2

// query selectivity ratio value for entry `N=C(N)c1ccc(OCCCCCOc2ccc(C(=N)N)cc2)cc1`
24.8

# selectivity ratio lookup, item `COc1ccc(CNCCNCc2ccc(OC)cc2)cc1`
120

# query: selectivity ratio of entry `Oc1ccccc1CNCCNCc1ccccc1O`
32.1

Look up selectivity ratio for this compound: `Clc1ccc(CNCCNCc2ccc(Cl)cc2Cl)c(Cl)c1`
22.7

Given the entry `O=C(Cn1ccnc1[N+](=O)[O-])NCc1ccccc1` , report its measured selectivity ratio.
10.2

Fill blank: measured selectivity ratio of the compound `O=[N+]([O-])c1ccc(CNCCNCc2ccc([N+](=O)[O-])cc2)cc1` is ____.
16.1
